- testedSystem: Luciferin 4-monooxygenase (Photinus pyralis) (UniProt P08659)
- Sequence (P08659 whole entry, looked up): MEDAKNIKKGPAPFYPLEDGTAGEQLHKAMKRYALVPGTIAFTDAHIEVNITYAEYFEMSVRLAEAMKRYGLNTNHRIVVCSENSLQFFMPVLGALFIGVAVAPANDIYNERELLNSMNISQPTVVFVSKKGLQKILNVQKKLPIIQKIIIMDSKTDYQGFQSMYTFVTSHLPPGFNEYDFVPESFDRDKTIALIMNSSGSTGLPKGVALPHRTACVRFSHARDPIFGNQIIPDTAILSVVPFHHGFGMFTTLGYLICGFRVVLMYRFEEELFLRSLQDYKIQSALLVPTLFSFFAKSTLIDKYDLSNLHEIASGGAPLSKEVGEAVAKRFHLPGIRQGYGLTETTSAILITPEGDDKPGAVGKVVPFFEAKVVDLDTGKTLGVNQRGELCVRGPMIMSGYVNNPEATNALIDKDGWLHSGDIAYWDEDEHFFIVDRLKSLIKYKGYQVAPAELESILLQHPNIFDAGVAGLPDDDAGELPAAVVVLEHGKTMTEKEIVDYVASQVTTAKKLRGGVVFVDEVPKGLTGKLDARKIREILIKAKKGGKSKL
- protocolNotes: firefly luciferase enzyme inhibitors, primary screen, biochemical, luminescence, purified enzyme, 2006 set (AID 1141);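 further: cell-free assay with purified firefly luciferase at 100 ng per well in PBS; test concentration not given here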
- appliedConditions: SteadyGlo luminescence, 30 min, higher = more signal, called active from +8 up or from −8 down
Label class 0 if z-score falls below -0.9; label class 1 in every other case.

{"columns": ["compound", "cat"],
 "data": [
  ["CCOC(=O)C[C@H]1[C@H](OC(=O)c2cc3ccccc3oc2=O)[C@@H](NC(=O)C2CCCCC2)c2cc(OCCCO)ccc2N1C(=O)Cc1ccc(OC)cc1", "class 1"],
  ["CCCCC(O)C1C=CC2C(=O)NC(=O)C2N1Nc1ccccn1 (configuration not stated)", "class 1"],
  ["COCCCNC(=O)[C@@H]1c2ccccc2C(=O)N(Cc2cc(C(F)(F)F)cc(C(F)(F)F)c2)[C@H]1c1ccc(CO)cc1", "class 1"],
  ["NC(=O)[C@@]1(CCS(=O)(=O)c2ccccc2)COC(c2ccc(OCCCO)cc2)=N1", "class 1"],
  ["COCCOC(=O)N1C(=O)[C@@]2(c3cc(C#CCC(C(=O)OC)C(=O)OC)ccc31)[C@H](C(N)=O)[C@H]1C(=O)O[C@H](c3ccccc3)[C@H](c3ccccc3)N1[C@@H]2c1ccc(OCCO)cc1", "class 1"],
  ["CN(C)C(=O)[C@@]1(CCS(=O)(=O)c2ccccc2)N=C(c2ccc(OCCCO)cc2)O[C@H]1c1ccccc1N=[N+]=[N-]", "class 0"],
  ["COc1ccc([Si](C)(C)[C@H]2[C@H](CC(=O)N3Cc4ccccc4C[C@H]3CO)O[C@@]3(C(=O)N(Cc4cccc(N5C(=O)c6cccc7cccc5c67)c4)c4ccccc43)[C@@H]2C)cc1", "class 0"],
  ["CC1CC/C=C\\[C@H]2OC34C=CCN(c5ccc(Cl)cc5)C(=O)[C@H]3N(CCCO)C(=O)[C@]4(C)C2C(=O)O1 (some centres not stated)", "class 1"],
  ["COC(=O)[C@@]1(CCC(=O)OC(C)(C)C)N=C(c2ccc(OCCCO)cc2)O[C@H]1c1ccccc1CN=[N+]=[N-]", "class 1"],
  ["COCCOC(=O)N1C(=O)[C@@]2(c3cc(C#CCC(C(=O)OC)C(=O)OC)ccc31)[C@H](C(=O)N1CCc3cc(OC)c(OC)cc3C1)[C@H]1C(=O)O[C@H](c3ccccc3)[C@H](c3ccccc3)N1[C@@H]2c1ccc(O)cc1", "class 1"],
  ["CC1CC/C=C\\[C@H]2OC34C=CCN(CCN5CCOCC5)C(=O)[C@H]3N(CCCCCCO)C(=O)[C@@H]4C2C(=O)O1 (some centres not stated)", "class 0"],
  ["C=CCC(OC(C)=O)[C@@H]1[C@@H](N(Cc2cc3ccccc3o2)C(=O)Cc2ccc(OC)cc2)c2cc(OCCCO)ccc2N1C(=O)Cc1ccc(OC)cc1 (some centres not stated)", "class 1"],
  ["C=CCC(OC(C)=O)[C@@H]1[C@@H](N(Cc2cccc3ccccc23)C(=O)c2ccc(-c3ccccc3)cc2)c2cc(OCCCO)ccc2N1C(=O)c1ccc2ccccc2n1 (some centres not stated)", "class 1"],
  ["C=CCN1C(=O)[C@]2(O[C@H](CCn3cc([C@H](O)c4ccccc4)nn3)[C@@H]([Si](C)(C)c3ccc(OC)cc3)[C@@H]2C)c2cc(N3C(=O)c4cccc5cccc3c45)ccc21", "class 1"],
  ["CC(C)(C)OC(=O)CC[C@]1(C(N)=O)N=C(c2ccc(OCCCO)cc2)O[C@H]1c1ccccc1CN=[N+]=[N-]", "class 0"],
  ["COc1cc2c(cc1O)C(c1ccc(CN3CCCC3)cc1)N(Cc1cccc(OC(F)(F)F)c1)CC2 (configuration not stated)", "class 0"],
  ["CCN(CC)c1ccc(N2CC=CC34O[C@@H]5C=CCOC(=O)[C@@H]5[C@H]3C(=O)N(CCO)[C@@H]4C2=O)cc1 (some centres not stated)", "class 0"],
  ["CC(C)CNC(=O)[C@@H]1c2ccccc2C(=O)N(C(C)C)[C@H]1c1ccc(CO)cc1", "class 1"],
  ["CCCCC=C[C@@H](NC(=O)c1ccc(C(F)(F)F)cc1)c1ccccc1", "class 1"],
  ["CCc1cccc(NC(=O)O[C@H]2[C@H](OC(=O)Nc3ccc4c(c3)OCO4)[C@H](OC(=O)Nc3ccc4c(c3)OCO4)[C@@H](OC)O[C@@H]2CO)c1", "class 0"],
  ["CC(C)[Si](C#CCCCC#N)(O[C@H](c1ccccc1)c1cn([C@H](C)c2ccccc2)nn1)C(C)C", "class 1"],
  ["CCCCC(=C=CC[C@@H](O)c1cccc(OCCO)c1)CCO", "class 1"],
  ["CCOC(=O)C1=CC[C@@H](c2ccccc2)N(S(=O)(=O)C[Si](C)(C)C)[C@H]1c1ccccc1", "class 1"],
  ["COCCOC(=O)N1C(=O)[C@@]2(c3cc(C#CCC(C(=O)OC)C(=O)OC)ccc31)[C@H](c1ccc(OCCO)cc1)N1[C@H](c3ccccc3)[C@H](c3ccccc3)OC(=O)[C@H]1[C@@H]2C(=O)N1CCCCCCC1", "class 0"],
  ["C=C(/C(=C/C[C@H](OC(=O)c1ccncc1)c1ccccc1OCCO)c1cc(C(=O)OC)ccc1OC)C(C)C", "class 1"],
  ["CC(C)N1CC=CC23O[C@@H]4C=CCCOC(=O)C4[C@H]2C(=O)N(CCCCCO)[C@@H]3C1=O (some centres not stated)", "class 1"]
]}

---

- protocolNotes: E. coli growth modulation, two-sided OD650, primary screen, E. coli filamentation project, strain DRC41, 24 h (AID 1093);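 further: MC1000 strain lacking acrAB efflux and sulA so SOS filamentation is blocked; test concentration not given here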
- appliedConditions: OD650, 24 h, higher = more signal, called active from +8 up or from −8 down
Entries and their measured z-score follow.

{"columns": ["compound", "z-score"],
 "data": [
  ["N#Cc1ccc(C(O)C2C=CC3C(=O)NC(=O)C3N2Nc2ccccn2)cc1 (stereo not given)", -0.195],
  ["COCCCN1C(=O)[C@@]2(Cc3ccccc31)c1ccccc1C(=O)N(Cc1ccccc1OC)[C@H]2c1ccc(CO)cc1", 0.258],
  ["COC(=O)[C@@]1(Cc2ccc(F)cc2)[C@H]2c3cc(C(=O)N4CCCC4)n(CCO)c3C[C@H]2CN1C(=O)c1ccccc1", 0.208],
  ["C=CCC(OC(C)=O)[C@@H]1[C@@H](N(Cc2cccc3ccccc23)C(=O)c2cccc3ccccc23)c2cc(OCCCO)ccc2N1C(=O)Cc1ccc2ccccc2c1 (stereo not given in full)", -0.225],
  ["C=CCNC(=O)[C@@H]1[C@H]2C(=O)O[C@H](c3ccccc3)[C@H](c3ccccc3)N2[C@H](c2ccc(O)cc2)[C@@]12C(=O)Nc1ccc(C#CC3(O)CCCCCC3)cc12", -0.447],
  ["O=C1O[C@@H](c2ccccc2)[C@@H](c2ccccc2)N2[C@@H](c3ccc(OCCO)cc3)[C@]3(C(=O)Nc4ccc(C#CCCO)cc43)[C@@H](C(=O)Nc3nc4ccccc4s3)[C@H]12", 2.55],
  ["CC(=O)NCCCC[C@@H]1NC(=O)[C@@H]2C[C@H](C(=O)NCCCCCC[N+](C)(C)C)[C@H](c3ccc(O)cc3)N2C1=O", -0.453],
  ["CN(C)CCCNC(=O)[C@@H]1c2ccccc2C(=O)N(C2Cc3ccccc3C2)[C@H]1c1ccc(CO)cc1", 0.688],
  ["CCC[C@@H]1C=C(C(=O)OCC)[C@H](c2ccccc2)N1S(=O)(=O)c1ccc(C)cc1", -0.209],
  ["CC(C)CNC(=O)[C@@H]1c2ccccc2C(=O)N(C(C)C)[C@H]1c1ccc(CO)cc1", 0.794],
  ["CO[C@H]1O[C@H](CO)[C@@H](OC(=O)Nc2ccc3c(c2)OCO3)[C@@H]2OC(=O)[C@@H](Cc3ccccc3)C/C=C/C[C@H](Cc3ccccc3)C(=O)O[C@@H]12", 0.156],
  ["CCCC[C@@H]1C[C@H]1[C@@H](NC(=O)Cc1ccccc1)c1ccc(Cl)cc1", -0.76],
  ["CN(C)CCCCNC(=O)[C@H]1C[C@H]2C(=O)NCC(=O)N2[C@H]1c1cccc(OCCO)c1", 0.52],
  ["CC(C)[C@@H](C(=O)O)n1cc(-c2ccccc2)nn1", -1.44],
  ["C=CCC(OC(C)=O)[C@@H]1[C@@H](N(Cc2ccc(-c3cccc(C(F)(F)F)c3)o2)C(=O)c2cccc3ccccc23)c2cc(OCCCO)ccc2N1C(=O)c1ccc2ccccc2c1 (stereo not given in full)", 0.0268]
]}

---

- testedSystem: Albumin (Bos taurus) (UniProt P02769)
- Sequence (P02769 whole entry, looked up): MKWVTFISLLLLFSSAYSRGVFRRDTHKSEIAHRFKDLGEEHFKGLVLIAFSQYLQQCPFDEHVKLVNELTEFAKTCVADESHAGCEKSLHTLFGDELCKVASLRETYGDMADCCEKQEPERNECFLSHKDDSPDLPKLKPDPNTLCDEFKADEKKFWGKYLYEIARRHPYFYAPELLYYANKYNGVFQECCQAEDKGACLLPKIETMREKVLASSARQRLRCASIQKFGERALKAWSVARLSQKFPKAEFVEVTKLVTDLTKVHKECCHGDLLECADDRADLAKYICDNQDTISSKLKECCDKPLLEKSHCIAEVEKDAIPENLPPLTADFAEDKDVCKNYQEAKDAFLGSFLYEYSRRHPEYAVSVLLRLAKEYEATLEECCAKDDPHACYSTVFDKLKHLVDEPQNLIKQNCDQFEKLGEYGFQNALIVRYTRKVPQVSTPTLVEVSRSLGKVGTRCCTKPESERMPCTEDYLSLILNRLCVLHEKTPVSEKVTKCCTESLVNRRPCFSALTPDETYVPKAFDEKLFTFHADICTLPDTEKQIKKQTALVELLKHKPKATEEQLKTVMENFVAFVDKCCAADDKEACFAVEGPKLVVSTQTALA
- protocolNotes: bovine serum albumin binders on microarray, profiling panel, artefact control for SMM control protein annotation, biochemical, small-molecule microarray, Alexa647 label, 635/667 nm fluorescence (AID 1118);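 further: score merges 667 nm emission intensity and signal-to-noise per printed compound spot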
- appliedConditions: BSA-A647 binding, fluorescence 635 nm, higher = more signal
This section presents molecules with their documented composite z-score values.

{"columns": ["molecule", "testedSystem", "composite z-score"],
 "data": [
  ["O=C1C2C=CC(C(O)c3ccc([N+](=O)[O-])cc3)N(Nc3ccccc3)C2C(=O)N1c1ccccc1 (stereo not given)", "Albumin (Bos taurus) (UniProt P02769)", 0.822],
  ["O=C1C2C=CC(C(O)c3cccc(O)c3)N(Nc3ccccc3F)C2C(=O)N1c1ccccc1 (stereo not given)", "Albumin (Bos taurus) (UniProt P02769)", 0.92],
  ["COC(=O)[C@@]1(Cc2ccc(F)cc2)[C@H]2c3cc(C(=O)N(C)C)n(CCn4cc([N+](=O)[O-])nc4C)c3C[C@H]2CN1C(=O)c1ccccc1", "Albumin (Bos taurus) (UniProt P02769)", 0.781],
  ["C=CCC(OC(C)=O)[C@@H]1[C@@H](N(Cc2ccc(-c3ccccc3)cc2)C(=O)c2ccc(-c3ccccc3)cc2)c2cc(OCCCO)ccc2N1C(=O)c1ccc2ccccc2n1 (stereo not given in full)", "Albumin (Bos taurus) (UniProt P02769)", -0.211],
  ["CC(C)CNC(=O)[C@@H]1c2ccccc2C(=O)N(Cc2ccccc2)[C@H]1c1ccc(CO)cc1", "Albumin (Bos taurus) (UniProt P02769)", -0.159],
  ["COc1cccc(OC)c1C(=O)O[C@H]1[C@@H]2OC(=O)[C@H](Cc3cccc(Br)c3)C/C=C/C[C@@H](Cc3cccc(Br)c3)C(=O)O[C@H]2[C@@H](OC)O[C@@H]1CO", "Albumin (Bos taurus) (UniProt P02769)", 0.33],
  ["O=C1C2C=CC(C(O)C(c3ccccc3)c3ccccc3)N(Nc3ccccc3)C2C(=O)N1c1ccccc1 (stereo not given)", "Albumin (Bos taurus) (UniProt P02769)", 0.876],
  ["COCCOC(=O)N1C(=O)[C@@]2(c3cc(C#CC4=CCCCC4)ccc31)[C@H](C(=O)N1CCN(c3ncccn3)CC1)[C@H]1C(=O)O[C@H](c3ccccc3)[C@H](c3ccccc3)N1[C@@H]2c1ccccc1OCCO", "Albumin (Bos taurus) (UniProt P02769)", 0.768],
  ["COCCOC(=O)N1C(=O)[C@@]2(c3cc(C#CC4(O)CCCCCC4)ccc31)[C@H](c1ccccc1OCCO)N1[C@H](c3ccccc3)[C@H](c3ccccc3)OC(=O)[C@H]1[C@@H]2C(=O)N1CCCCCCC1", "Albumin (Bos taurus) (UniProt P02769)", 0.187],
  ["C=C(/C(=C/C[C@@H](OC(C)=O)c1ccccc1OCCO)c1cc(C(=O)OC)ccc1OC)C(C)C", "Albumin (Bos taurus) (UniProt P02769)", 0.344],
  ["CN(C)CCCC[C@@H]1NC(=O)[C@@H]2C[C@H](C(=O)NCc3ccc(F)cc3)[C@H](c3ccc(O)cc3)N2C1=O", "Albumin (Bos taurus) (UniProt P02769)", -0.16],
  ["COc1ccc(CC[C@H](O)c2cccc(OCC(=O)OC(C)(C)C)c2)cc1", "Albumin (Bos taurus) (UniProt P02769)", 0.625],
  ["NCCCC[C@@H]1NC(=O)[C@H]2C[C@@H](C(=O)O)[C@@H](c3cccc(OCCO)c3)N2C1=O", "Albumin (Bos taurus) (UniProt P02769)", 0.294],
  ["CC1(C)OC[C@@]23C=C(Br)[C@@H](C[C@H]12)[C@@]1(CO1)C3=O", "Albumin (Bos taurus) (UniProt P02769)", -0.172],
  ["CO[C@H]1O[C@H](CO)[C@@H](OC(=O)Nc2ccc(C(F)(F)F)cc2)[C@H](OC(=O)Nc2ccccc2-c2ccccc2)[C@H]1OC(=O)Nc1ccccc1-c1ccccc1", "Albumin (Bos taurus) (UniProt P02769)", -0.792]
]}
